Where do the numbers come from? From PubChem BioAssay.

Experiment Notes: growth inhibition, single agent and combos, cell-based, chromothripsis tumors, cisplatin or BGB combos (AID 1671450);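 further: cells exposed to compound for four days; 0% = vehicle DMSO and 100% = cell killing by high DMSO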
Run Parameters: HDN33 neuroblastoma cells, measured here: with BGB IC20 combination, at 0.5 µM, stronger effect = higher value
inhibition for assorted molecules
Kindly answer with a numeric value in %, unit omitted.

Consider the worked cases shown below.
- Molecule: "CCC(Sc1nnc2c3ccccc3n(CC)c2n1)C(=O)Nc1ccccc1OC (stereo unspecified)"
  inhibition / %: -15.6
- Molecule: "Cc1ccc([N+](=O)[O-])cc1S(=O)(=O)N(C)/N=C\\c1cnc2ccc(Br)cn12"
  inhibition / %: 94
- Molecule: "O=c1ccn(C2CC(O)C(CO)O2)c(=O)[nH]1 (stereo unspecified)"
  inhibition / %: -38.7
- Molecule: "CC(Oc1cc(-c2cnn(C3CCNCC3)c2)cnc1N)c1c(Cl)ccc(F)c1Cl (stereo unspecified)"
  inhibition / %: -2.84
- Molecule: "COc1cccc2c1C(=O)c1c(O)c3c(c(O)c1C2=O)CC(O)(C(C)=O)CC3OC1CC(N)C(O)C(C)O1 (stereo unspecified)"
  inhibition / %: 98.9

Kindly review the next molecule as well.
[Q] # return recorded inhibition for input CC1OC(n2cc(F)c(=O)[nH]c2=O)C(O)C1O (stereo unspecified)
[A] -22.1

----------
Experiment Notes: growth inhibition, single agent or in combination, cell-based, chromothripsis tumors, cisplatin or BGB combos (AID 1671449);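 further: cells exposed for 96 hours; 0% = vehicle DMSO and 100% = killing by high DMSO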
Run Parameters: LFS_MB_P medulloblastoma cells, at 0.5 µM, stronger effect = higher value
Binary classification by inhibition, with -30% as an inclusive lower bound for yes; all other cases are no.

Observe how each entry below is paired with its result.
- Compound: "COc1ccccc1S(=O)(=O)Nc1ccc2c(c1)CN(C)C(=O)N2"
  Class Label: "yes"
- Compound: "COc1nc(N)nc2c1ncn2[C@@H]1O[C@H](CO)[C@@H](O)[C@H]1O"
  Class Label: "yes"
- Compound: "CON=C1CN(c2nc3c(cc2F)c(=O)c(C(=O)O)cn3C2CC2)CC1CN (stereo unspecified)"
  Class Label: "yes"

[Q] hey, is inhibition for this one >= -30%? O=C1N=c2ccccc2=C1c1c(O)[nH]c2ccccc12
[A] yes

[Q] Has COc1cccc2c1C(=O)c1c(O)c3c(c(O)c1C2=O)CC(O)(C(=O)CO)CC3OC1CC(N)C(OC2CCCCO2)C(C)O1 (stereo unspecified) a recorded inhibition greater than or equal to -30%?
[A] no

----------
Measured On: Mitogen-activated protein kinase 7 (Homo sapiens)
Experiment Notes: Gal4-ERK5 driven luciferase induction – cell-based, HTS, primary screen (AID 1508626);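 further: luciferase driven by Gal4-ERK5 fusion binding five Gal4 sites before minimal TATA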
Run Parameters: HeLa Gal4-ERK5 transactivation, 18 h, at 5 µM, stronger effect = higher value
Activity calls are given as the source filed them.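 Rule for the calls: active = luciferase signal above three times the same-plate solvent-only control wells; inactive = the rest.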
Readout Name: luciferase signal

Completed entries (count: 8):
- Compound: "CN[C@@H]1[C@H](O[C@H]2[C@H](O[C@H]3[C@H](O)[C@@H](O)[C@H](N=C(N)N)[C@@H](O)[C@@H]3N=C(N)N)O[C@@H](C)[C@]2(O)C=O)O[C@@H](CO)[C@H](O)[C@H]1O"
  luciferase signal: "80 AU (inactive)"
- Compound: "CC(C)CCC[C@@H](C)[C@H]1CC[C@H]2[C@@H]3CC=C4CC(=O)CC[C@]4(C)[C@H]3CC[C@]12C"
  luciferase signal: "20 AU (inactive)"
- Compound: "C=C1CC[C@@]2(OC1)O[C@H]1C[C@H]3[C@@H]4CC=C5C[C@@H](O)C[C@@H](O)[C@]5(C)[C@H]4CC[C@]3(C)[C@H]1[C@@H]2C"
  luciferase signal: "84 AU (inactive)"
- Compound: "O=C(O)C1=C(CSc2nnnn2CS(=O)(=O)O)CS[C@@H]2[C@H](NC(=O)[C@H](O)c3ccccc3)C(=O)N12"
  luciferase signal: "84 AU (inactive)"
- Compound: "CC(=O)Oc1ccc2c(c1)CC[C@@H]1[C@@H]2CC[C@]2(C)[C@@H](OC(C)=O)CC[C@@H]12"
  luciferase signal: "8 AU (inactive)"
- Compound: "Cc1cccc2c3c(ccc12)C1=C(C(=O)C3=O)[C@@H](C)CO1"
  luciferase signal: "156 AU (inactive)"
- Compound: "O[C@H]1[C@H](O)[C@@H](O)C2OC[C@H]1O2"
  luciferase signal: "60 AU (inactive)"
- Compound: "Cn1nnnc1SCC1=C(C(=O)O)N2C(=O)[C@@H](NC(=O)[C@H](OC=O)c3ccccc3)[C@H]2SC1"
  luciferase signal: "16 AU (inactive)"

[Q] Name the recorded luciferase signal of the item C[C@H]1C[C@@H]2[C@H]([C@@H](O)C[C@@]3(C)[C@H]2CC[C@]3(O)C(=O)COC(=O)CCC(=O)O)[C@@]2(C)C=CC(=O)C=C12 in your answer.
[A] 72 AU (inactive)

[Q] State its luciferase signal: CC[C@H]1OC(=O)C[C@@H](O)[C@H](C)[C@@H](O[C@@H]2O[C@H](C)[C@@H](O)[C@H](N(C)C)[C@H]2O)[C@@H](CCN2C[C@H](C)C[C@H](C)C2)C[C@@H](C)C(=O)/C=C/C(C)=C/[C@@H]1CO[C@@H]1O[C@H](C)[C@@H](O)[C@@H](OC)[C@H]1OC
[A] 36 AU (inactive)

[Q] Determine its reported luciferase signal: C=C1C(=O)C23C(O)C1CCC2C12COC3(O)C(O)C1C(C)(C)CCC2O (stereo unspecified)
[A] 108 AU (inactive)
